assay: Cytotoxicity against human SW620/Ad300 cells overexpressing ABCB1 assessed as cell survival at 3 uM by MTT assay; format: ADME, cell-based, SW-620; conditions: SW620/Ad300 cells that overexpress ABCB1, read-out: Activity
assay metric: viability at 3 µM

Consider the compound CC(C)[C@@H]1NC(=O)c2csc(n2)[C@H](C(C)C)NC(=O)c2csc(n2)[C@H](C(C)C)NC(=O)c2csc1n2 and give its recorded viability at 3 µM.
> 85%

* * *

target: UniProt:P08183; assay: Inhibition of human wild type P-gp expressed in BacMam virus infected human HeLa cells assessed as calcein-AM accumulation after 10 mins by flow cytometry; assay type: cell-based
Sequence (P08183 whole entry): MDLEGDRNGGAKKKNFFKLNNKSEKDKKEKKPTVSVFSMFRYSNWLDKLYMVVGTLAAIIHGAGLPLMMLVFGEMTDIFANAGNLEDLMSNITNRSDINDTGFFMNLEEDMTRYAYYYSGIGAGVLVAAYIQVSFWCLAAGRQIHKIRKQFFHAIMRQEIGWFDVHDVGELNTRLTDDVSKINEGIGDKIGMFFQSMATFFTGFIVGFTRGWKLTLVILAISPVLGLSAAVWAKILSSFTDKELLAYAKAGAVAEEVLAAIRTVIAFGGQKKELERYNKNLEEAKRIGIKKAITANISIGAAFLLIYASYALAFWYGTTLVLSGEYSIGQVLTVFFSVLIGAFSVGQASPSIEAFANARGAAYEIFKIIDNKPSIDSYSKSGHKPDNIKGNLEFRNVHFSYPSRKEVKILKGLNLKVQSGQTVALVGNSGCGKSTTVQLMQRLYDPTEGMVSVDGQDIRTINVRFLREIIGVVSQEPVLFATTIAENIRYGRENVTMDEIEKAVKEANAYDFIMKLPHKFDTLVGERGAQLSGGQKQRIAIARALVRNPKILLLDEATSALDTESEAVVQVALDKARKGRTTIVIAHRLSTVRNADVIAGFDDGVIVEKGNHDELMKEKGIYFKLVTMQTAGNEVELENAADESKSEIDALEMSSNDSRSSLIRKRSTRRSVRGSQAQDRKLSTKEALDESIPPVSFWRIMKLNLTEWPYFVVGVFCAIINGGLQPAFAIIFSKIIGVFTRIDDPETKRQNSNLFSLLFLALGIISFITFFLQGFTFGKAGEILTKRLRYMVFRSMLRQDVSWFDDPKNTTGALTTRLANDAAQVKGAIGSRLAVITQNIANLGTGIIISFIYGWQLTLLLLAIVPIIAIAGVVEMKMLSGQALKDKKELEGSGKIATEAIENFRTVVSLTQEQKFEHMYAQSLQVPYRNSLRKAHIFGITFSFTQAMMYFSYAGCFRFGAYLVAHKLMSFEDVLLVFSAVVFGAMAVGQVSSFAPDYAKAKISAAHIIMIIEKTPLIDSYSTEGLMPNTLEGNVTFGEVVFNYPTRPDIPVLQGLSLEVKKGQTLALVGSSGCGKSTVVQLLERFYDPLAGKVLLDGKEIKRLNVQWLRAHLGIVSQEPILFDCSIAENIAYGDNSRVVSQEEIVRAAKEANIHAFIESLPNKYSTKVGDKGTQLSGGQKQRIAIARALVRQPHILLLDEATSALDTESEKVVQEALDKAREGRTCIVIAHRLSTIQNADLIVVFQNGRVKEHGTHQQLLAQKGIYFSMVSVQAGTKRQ
This listing pairs compounds with measured pIC50.
Expect pIC50 as a plain number equal to -log10 of the molar concentration.

For orientation, consider the following solved cases.
COc1ccc(C(C)NC(=O)c2csc([C@@H](NC(=O)c3csc([C@@H](NC(=O)OC(C)(C)C)C(C)C)n3)C(C)C)n2)cc1 (stereo not given in full)    5.70
COc1cc(NC(=O)c2csc([C@@H](NC(=O)c3csc([C@@H](NC(=O)OC(C)(C)C)C(C)C)n3)C(C)C)n2)cc(OC)c1OC    5.19
COc1ccc(NC(=O)c2csc([C@@H](NC(=O)c3csc([C@@H](NC(=O)OC(C)(C)C)C(C)C)n3)C(C)C)n2)c(OC)c1    5.60
COc1cc(C(=O)N[C@H](c2nc(C(=O)Nc3ccccc3C(=O)c3ccccc3)cs2)C(C)C)cc(OC)c1OC    6.00

Proceeding to the next compound to report its pIC50.
Consider the compound CCOC(=O)c1csc([C@@H](NC(=O)c2csc([C@@H](NC(=O)c3ccc(OC)c(OC)c3)C(C)C)n2)C(C)C)n1 and give its recorded pIC50.
4.80
